These data points were gathered from ChEMBL document CHEMBL1140474.

System: Caco-2
experiment-notes: Stability in human Caco-2 homogenates after 20 mins
Format: ADME
details: caco-2, 20 min
Where a SMILES comes first, the peptide text is derived from it. [ ]: non-standard residue; d: D form. ξ: configuration not given here. ξGly(dodecyl) = CCCCCCCCCCCCC(N)C(=O)O; ξGly(decyl) = CCCCCCCCCCC(N)C(=O)O; ξGly(octyl) = CCCCCCCCC(N)C(=O)O; ξAoc(2) = CCCCCCC(N)C(=O)O
value-type: Activity

molecule="CCCCCCCCCCC(N)C(=O)NC(CCCCCCCCCC)C(=O)N[C@@H](CCC(=O)O)C(=O)N[C@@H](Cc1c[nH]c2ccccc12)C(N)=O (some centres undefined) (H-[ξGly(decyl)][ξGly(decyl)]EW-NH2)" value_type=Activity result="Not Active"
molecule="CCCCCCCCCCCCC(N)C(=O)NC(CCCCCCCCCCCC)C(=O)N[C@@H](CCC(=O)O)C(=O)N[C@@H](Cc1c[nH]c2ccccc12)C(N)=O (some centres undefined) (H-[ξGly(dodecyl)][ξGly(dodecyl)]EW-NH2)" value_type=Activity result="Not Active"
molecule="CCCCCCCCC(N)C(=O)NC(CCCCCCCC)C(=O)N[C@@H](CCC(=O)O)C(=O)N[C@@H](Cc1c[nH]c2ccccc12)C(N)=O (some centres undefined) (H-[ξGly(octyl)][ξGly(octyl)]EW-NH2)" value_type=Activity result="Not Active"
molecule="CCCCCCC(N)C(=O)NC(CCCCCC)C(=O)N[C@@H](CCC(=O)O)C(=O)N[C@@H](Cc1c[nH]c2ccccc12)C(N)=O (some centres undefined) (H-[ξAoc(2)][ξAoc(2)]EW-NH2)" value_type=Activity result="Not Active"

---

experiment-notes: Apparent permeability across human Caco-2 cells
Assay type: ADME, cell-based
Where a SMILES comes first, the peptide text is derived from it. [ ]: non-standard residue; d: D form. ξ: configuration not given here. ξGly(dodecyl) = CCCCCCCCCCCCC(N)C(=O)O; ξGly(decyl) = CCCCCCCCCCC(N)C(=O)O; ξGly(octyl) = CCCCCCCCC(N)C(=O)O; ξAoc(2) = CCCCCCC(N)C(=O)O
Give measured Papp for each item. Keep answers brief.
One number for each entry, in ×10⁻⁶ cm/s.

Examples from the recorded data:
compound="CCCCCCCCCCCCC(N)C(=O)NC(CCCCCCCCCCCC)C(=O)N[C@@H](CCC(=O)O)C(=O)N[C@@H](Cc1c[nH]c2ccccc12)C(N)=O (some centres not stated) (H-[ξGly(dodecyl)][ξGly(dodecyl)]EW-NH2)" unit_abbrev="×10⁻⁶ cm/s" quantitative_result=2.77
compound="CCCCCCCCC(N)C(=O)N[C@@H](CCC(=O)O)C(=O)N[C@@H](Cc1c[nH]c2ccccc12)C(N)=O (some centres not stated)" unit_abbrev="×10⁻⁶ cm/s" quantitative_result=1.55
compound="CCCCCCC(N)C(=O)NC(CCCCCC)C(=O)N[C@@H](CCC(=O)O)C(=O)N[C@@H](Cc1c[nH]c2ccccc12)C(N)=O (some centres not stated) (H-[ξAoc(2)][ξAoc(2)]EW-NH2)" unit_abbrev="×10⁻⁶ cm/s" quantitative_result=8.32
compound="CCCCCCC(N)C(=O)N[C@@H](CCC(=O)O)C(=O)N[C@@H](Cc1c[nH]c2ccccc12)C(N)=O (stereo partly drawn) (H-[ξAoc(2)]-Glu-Trp-NH2)" unit_abbrev="×10⁻⁶ cm/s" quantitative_result=4.84
compound="CCCCCCCCC(N)C(=O)NC(CCCCCCCC)C(=O)N[C@@H](CCC(=O)O)C(=O)N[C@@H](Cc1c[nH]c2ccccc12)C(N)=O (some centres not stated) (H-[ξGly(octyl)][ξGly(octyl)]EW-NH2)" unit_abbrev="×10⁻⁶ cm/s" quantitative_result=1.79
compound="CCCCCCCCCCC(N)C(=O)N[C@@H](CCC(=O)O)C(=O)N[C@@H](Cc1c[nH]c2ccccc12)C(N)=O (some centres not stated)" unit_abbrev="×10⁻⁶ cm/s" quantitative_result=9.26
compound="NC(=O)[C@H](Cc1c[nH]c2ccccc12)NC(=O)[C@@H](N)CCC(=O)O (H-Glu-Trp-NH2)" unit_abbrev="×10⁻⁶ cm/s" quantitative_result=7.76
compound="CCCCCCCCCCC(N)C(=O)NC(CCCCCCCCCC)C(=O)N[C@@H](CCC(=O)O)C(=O)N[C@@H](Cc1c[nH]c2ccccc12)C(N)=O (some centres not stated) (H-[ξGly(decyl)][ξGly(decyl)]EW-NH2)" unit_abbrev="×10⁻⁶ cm/s" quantitative_result=3.09
compound="CCCCCCCCCCC(NC(=O)[C@@H](N)CCC(=O)O)C(=O)N[C@@H](Cc1c[nH]c2ccccc12)C(N)=O (some centres not stated)" unit_abbrev="×10⁻⁶ cm/s" quantitative_result=4.66
compound="CCCCCCCCCCCCC(N)C(=O)N[C@@H](CCC(=O)O)C(=O)N[C@@H](Cc1c[nH]c2ccccc12)C(N)=O (some centres not stated)" unit_abbrev="×10⁻⁶ cm/s" quantitative_result=1.02

// batch mode: one Papp value per listed entry
1. CCCCCCC(NC(=O)[C@@H](N)CCC(=O)O)C(=O)N[C@@H](Cc1c[nH]c2ccccc12)C(N)=O (some centres not stated) (H-Glu-[ξAoc(2)]-Trp-NH2)
2. CCCCCCCCC(NC(=O)[C@@H](N)CCC(=O)O)C(=O)N[C@@H](Cc1c[nH]c2ccccc12)C(N)=O (some centres not stated)

A.
[3.83, 3.99]
